System: HT29 colon
ASSAY_EXPLANATION: NCI tumour cell line growth inhibition, 48 h
READOUT_NAME: GI50

[
  {
    "COMPOUND": "O=C(CN1CCN(CCCOc2c(-c3ccccc3)oc3ccccc3c2=O)CC1)Nc1ccc(Cl)cc1C(=O)c1ccccc1Cl",
    "READOUT_NAME": "GI50",
    "READOUT_VALUE": "3.09 µM"
  },
  {
    "COMPOUND": "CCC/C(=N/N=C(N)N)c1ccc(NC(=O)c2cc3cc(OC)ccc3[nH]2)cc1",
    "READOUT_NAME": "GI50",
    "READOUT_VALUE": "4.49 µM"
  },
  {
    "COMPOUND": "CC1=C2C[C@H]3[C@@H](CC[C@@H]4CC(NS(C)(=O)=O)CC[C@@]43C)[C@@H]2CC[C@@]2(C1)O[C@@H]1C[C@H](C)CN[C@H]1[C@H]2C (stereo not given in full)",
    "READOUT_NAME": "GI50",
    "READOUT_VALUE": "3.5 µM"
  },
  {
    "COMPOUND": "CCn1c(CN2CCN(Cc3ccccc3)CC2)nc2cc(NC(=O)c3cccs3)ccc21",
    "READOUT_NAME": "GI50",
    "READOUT_VALUE": "16.8 µM"
  },
  {
    "COMPOUND": "COc1ccc(/C=C/C(=O)c2ccc(SC)cc2)cc1OC",
    "READOUT_NAME": "GI50",
    "READOUT_VALUE": "4.57 µM"
  }
]

====

Tested on: HCC-2998 colon
ASSAY_EXPLANATION: NCI tumour cell line growth inhibition, 48 h
READOUT_NAME: TGI

[
  {
    "COMPOUND": "CCOC(=O)C(/C=N\\C(=S)Nc1ccc(Cl)c(Cl)c1)=C(/O)c1ccccc1",
    "READOUT_VALUE": "60.4 µM"
  },
  {
    "COMPOUND": "O=C(CN1CCN(CCCOc2c(-c3ccccc3)oc3ccccc3c2=O)CC1)Nc1ccc(Cl)cc1C(=O)c1ccccc1Cl",
    "READOUT_VALUE": "4.23 µM"
  },
  {
    "COMPOUND": "COC(=O)C1=C(C(=O)ON)C2C=CC1(C(Cc1ccccc1)Nc1ccccc1)O2 (stereo not given)",
    "READOUT_VALUE": "32.3 µM"
  },
  {
    "COMPOUND": "COc1cc(C2c3cc(O)c(OC)cc3C3OCC2C3CO)ccc1O (stereo not given)",
    "READOUT_VALUE": "> 100 µM"
  },
  {
    "COMPOUND": "O/C(=C\\c1nc2ccccc2nc1/C=C(\\O)c1ccc(Cl)cc1)c1ccccc1",
    "READOUT_VALUE": "> 100 µM"
  },
  {
    "COMPOUND": "CCOC(=O)C12CCC(=O)C=C1[C@@H](C)C(=O)CC2 (stereo not given in full)",
    "READOUT_VALUE": "> 100 µM"
  },
  {
    "COMPOUND": "N#Cc1nc2c(S(=O)(=O)c3ccccc3)c(N)n(Cc3cccnc3)c2nc1C#N",
    "READOUT_VALUE": "> 100 µM"
  },
  {
    "COMPOUND": "FC(F)(Sc1ccccn1)c1nc2ccccc2o1",
    "READOUT_VALUE": "> 100 µM"
  },
  {
    "COMPOUND": "CCc1c(C#N)c(S[C@@H](C(N)=O)c2ccccc2)nc(N(C)C)c1C#N",
    "READOUT_VALUE": "> 100 µM"
  },
  {
    "COMPOUND": "N=C(N)N1CCC(N2CCOCC2)CC1",
    "READOUT_VALUE": "> 100 µM"
  }
]
